measurement-target: Aβ1-40 fibers (human)
method-summary: SPR
For each entry below, report its pKd value.
Value format note: pKd is -log10 of concentration (mol/L); just state the number.

Problem: What does the record list as pKd for MS-R 3.6H5 x 3.6L1 Fab (antibody, V domains shown) VH: QLVESGGGLVQPGGSLRLSCAASGFTFSSYAMSWVRQAPGKGLEWVSAISESGKTKYYADSVKGRFTISRDNSKNTLYLQMNSLRAEDTAVYYCARLTHYARYYRYFDVWGQGTLVTVSS VL: DIVLTQSPATLSLSPGERATLSCRASQFIQRFYLAWYQQKPGQAPRLLIYGASSRATGVPARFSGSGSGTDFTLTISSLEPEDFAVYYCQQTYNYPPTFGQGTKVEIKR ?
Solution: 8.90

Problem: What does the record list as pKd for MS-R 3.4H3 x 3.4L9 Fab (antibody, V domains shown) VH: QLVESGGGLVQPGGSLRLSCAASGFTFSSYAMSWVRQAPGKGLEWVSVISQTGRKIYYADSVKGRFTISRDNSKNTLYLQMNSLRAEDTAVYYCARLTHYARYYRYFDVWGQGTLVTVSS VL: DIVLTQSPATLSLSPGERATLSCRASRRIHVYYLAWYQQKPGQAPRLLIYGASSRATGVPARFSGSGSGTDFTLTISSLEPEDFATYYCQQTYDYPPTFGQGTKVEIKR ?
Solution: 8.98
